target: recombinant human DHODH (Homo sapiens); test: Endpoint DHODH enzyme assay (coenzyme Q10, DCIP); format: biochemical; design: purchased Prospecbio ENZ-642; settings: compound at 10 µM; Supplementary Table 6, 30,000 compound library
Sequence (Q02127 31-395 limits assumed): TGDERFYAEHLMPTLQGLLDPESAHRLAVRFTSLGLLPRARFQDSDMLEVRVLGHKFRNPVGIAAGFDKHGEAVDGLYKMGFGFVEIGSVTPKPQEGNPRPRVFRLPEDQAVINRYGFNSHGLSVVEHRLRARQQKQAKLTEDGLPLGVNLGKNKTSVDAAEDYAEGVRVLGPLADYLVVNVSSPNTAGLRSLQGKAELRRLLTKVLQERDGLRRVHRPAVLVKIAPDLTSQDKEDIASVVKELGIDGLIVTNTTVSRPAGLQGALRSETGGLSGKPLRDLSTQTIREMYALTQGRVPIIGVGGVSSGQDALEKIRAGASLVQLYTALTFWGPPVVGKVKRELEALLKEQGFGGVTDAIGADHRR
Measured remaining activity at 10 µM accompanies every entry in the list below.
Give the value in % but do not write % after it.

// solved cases for remaining activity at 10 µM follow
Ask: Lab request: please report remaining activity at 10 µM under test system recombinant human DHODH (Homo sapiens) for `CSC1=NC(=Cc2ccc(OCc3ccccc3)cc2)C(=O)S1`
Reply: 74.9

Ask: Lab request: please report remaining activity at 10 µM under test system recombinant human DHODH (Homo sapiens) for `Cc1cc(O)c(NC(=S)NC(=O)c2ccc(C(C)(C)C)cc2)cc1C`
Reply: 51

Ask: Lab request: please report remaining activity at 10 µM under test system recombinant human DHODH (Homo sapiens) for `COc1ccccc1N1CCN(C(=O)c2ccc(Cl)c([N+](=O)[O-])c2)CC1`
Reply: 97.5

---
Ask: Lab request: please report remaining activity at 10 µM under test system recombinant human DHODH (Homo sapiens) for `COc1ccc(NC(=S)NC(=O)c2ccc(C(C)(C)C)cc2)c(OC)c1`
Reply: 97.8

Ask: Lab request: please report remaining activity at 10 µM under test system recombinant human DHODH (Homo sapiens) for `Cc1cccc(Cc2cnc(NC(=O)c3ccc(Br)cc3)s2)c1`
Reply: 97.6

Ask: Lab request: please report remaining activity at 10 µM under test system recombinant human DHODH (Homo sapiens) for `O=C(NN=Cc1ccc(O)cc1)c1cc(-c2ccccc2)nc2ccccc12`
Reply: 8.96

Ask: Lab request: please report remaining activity at 10 µM under test system recombinant human DHODH (Homo sapiens) for `Cc1ccc(C=NNC(=O)c2c(C)nc3ccc(Cl)cn23)cc1`
Reply: 100

Ask: Lab request: please report remaining activity at 10 µM under test system recombinant human DHODH (Homo sapiens) for O=C1Nc2ccccc2C1=CNC1CCCc2c1[nH]c1ccccc21 (stereo not drawn)
Reply: 48.5
